Where do the numbers come from? From patent US20120253008A1.

Quick reference: Kd of the listed items.
- assayed system: T1, cynomolgus monkey serum albumin (cynomolgus monkey, UniProt A2V9Z4 25-608)
- T1 construct: amine-coupled to a CM5 chip; also called CSA; cynoSA
- T1 sequence (A2V9Z4 25-608 limits assumed): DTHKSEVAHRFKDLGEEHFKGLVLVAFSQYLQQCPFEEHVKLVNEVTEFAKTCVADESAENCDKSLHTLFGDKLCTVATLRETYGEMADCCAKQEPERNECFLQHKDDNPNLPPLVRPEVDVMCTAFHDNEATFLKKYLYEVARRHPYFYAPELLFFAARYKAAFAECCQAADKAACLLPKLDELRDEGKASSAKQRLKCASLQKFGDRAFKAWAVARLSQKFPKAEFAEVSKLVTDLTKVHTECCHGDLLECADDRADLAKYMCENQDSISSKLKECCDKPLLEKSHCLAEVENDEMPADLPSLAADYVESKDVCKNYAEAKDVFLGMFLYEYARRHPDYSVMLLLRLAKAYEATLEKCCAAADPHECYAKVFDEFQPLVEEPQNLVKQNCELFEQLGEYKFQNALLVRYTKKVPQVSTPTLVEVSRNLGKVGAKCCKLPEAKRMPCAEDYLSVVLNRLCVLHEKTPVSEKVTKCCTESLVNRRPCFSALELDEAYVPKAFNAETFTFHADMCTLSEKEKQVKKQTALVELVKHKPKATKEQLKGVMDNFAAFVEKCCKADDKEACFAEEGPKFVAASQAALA
- assay method text: SPR, BIAcore 3000, CSA on CM5 chip

# binder, quantity unit, Kd
data = [
    ("2D3-9GS-56E4-MycHis (other) EVQLVESGGSLVQPGGSLRLSCAASGFTFDDYAMSWVRQVPGKGLEWVSSINWSGTHTDYADSVKGRFTISRNNANNTLYLQMNSLKSEDTAVYYCAKNWRDAGTTWFEKSGSAGQGTQVTVSSGGGGSGGGSAAARYWDYDVFGGGTPVGGAAAEQKLISEEDLNGAAHHHHHH", "µM", 2.11),
    ("2D3-9GS-59F2-MycHis (other) EVQLVESGGSLVQPGGSLRLSCAASGFTFDDYAMSWVRQVPGKGLEWVSSINWSGTHTDYADSVKGRFTISRNNANNTLYLQMNSLKSEDTAVYYCAKNWRDAGTTWFEKSGSAGQGTQVTVSSGGGGSGGGSAAARYWDFDVFGGGTPVGGAAAEQKLISEEDLNGAAHHHHHH", "µM", 1.04),
    ("2D3-9GS-59C2-MycHis (other) EVQLVESGGSLVQPGGSLRLSCAASGFTFDDYAMSWVRQVPGKGLEWVSSINWSGTHTDYADSVKGRFTISRNNANNTLYLQMNSLKSEDTAVYYCAKNWRDAGTTWFEKSGSAGQGTQVTVSSGGGGSGGGSAAARDWDFDVFGGGTPVGGAAAEQKLISEEDLNGAAHHHHHH", "µM", 0.775),
]
